Provide the reported IC50, inhibition of HGF/SF-induced migration of SKOV-3 cells, Assay 1 of each item.
target: human MET (c-Met) on cells (SKOV-3, BxPC3) (human, UniProt P08581 25-1390); assay: cell-based or functional assay
Sequence (P08581 25-1390): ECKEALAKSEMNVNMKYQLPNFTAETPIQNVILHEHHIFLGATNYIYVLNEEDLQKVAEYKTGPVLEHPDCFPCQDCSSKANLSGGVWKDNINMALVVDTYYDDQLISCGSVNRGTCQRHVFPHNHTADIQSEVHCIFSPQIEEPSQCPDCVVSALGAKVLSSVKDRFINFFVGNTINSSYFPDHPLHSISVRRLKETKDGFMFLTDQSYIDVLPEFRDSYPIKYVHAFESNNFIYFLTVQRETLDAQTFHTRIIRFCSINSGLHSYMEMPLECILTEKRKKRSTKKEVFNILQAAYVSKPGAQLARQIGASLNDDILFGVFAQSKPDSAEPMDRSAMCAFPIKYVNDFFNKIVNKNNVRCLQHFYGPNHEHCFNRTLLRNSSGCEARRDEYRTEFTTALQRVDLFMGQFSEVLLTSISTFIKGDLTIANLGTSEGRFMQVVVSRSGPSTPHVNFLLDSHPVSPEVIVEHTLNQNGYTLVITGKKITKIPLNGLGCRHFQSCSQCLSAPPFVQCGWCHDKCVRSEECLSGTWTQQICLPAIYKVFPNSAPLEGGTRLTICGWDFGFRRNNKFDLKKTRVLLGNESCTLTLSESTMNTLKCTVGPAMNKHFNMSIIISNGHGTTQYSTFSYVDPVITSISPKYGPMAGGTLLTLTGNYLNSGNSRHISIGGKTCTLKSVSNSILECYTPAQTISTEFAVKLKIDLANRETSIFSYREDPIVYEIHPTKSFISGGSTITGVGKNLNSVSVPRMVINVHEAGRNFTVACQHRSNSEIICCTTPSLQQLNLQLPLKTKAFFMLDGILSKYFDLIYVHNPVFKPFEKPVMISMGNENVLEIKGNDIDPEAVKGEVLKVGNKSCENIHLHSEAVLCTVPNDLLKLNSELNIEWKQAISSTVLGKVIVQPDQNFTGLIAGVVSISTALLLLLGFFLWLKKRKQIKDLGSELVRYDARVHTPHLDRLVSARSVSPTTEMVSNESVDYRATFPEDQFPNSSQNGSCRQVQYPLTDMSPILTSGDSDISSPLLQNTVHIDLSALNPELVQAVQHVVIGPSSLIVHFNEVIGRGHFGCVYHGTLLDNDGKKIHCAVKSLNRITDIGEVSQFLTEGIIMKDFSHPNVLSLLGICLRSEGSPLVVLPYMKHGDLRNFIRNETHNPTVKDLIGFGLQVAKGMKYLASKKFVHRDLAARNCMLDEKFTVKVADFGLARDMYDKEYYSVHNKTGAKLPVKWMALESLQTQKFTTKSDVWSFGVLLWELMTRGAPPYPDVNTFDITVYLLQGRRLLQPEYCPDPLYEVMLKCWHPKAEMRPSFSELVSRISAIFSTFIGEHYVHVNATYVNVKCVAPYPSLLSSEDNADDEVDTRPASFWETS
Give your result as the value with the unit written after it.

Query: Need IC50, inhibition of HGF/SF-induced migration of SKOV-3 cells, Assay 1, item 107_A07 Fab (His/tri-FLAG tagged, hinged) (Fab, V domains shown, Fab from pBIOCAM7-3F in HEK293 cells, hinged format (Leu-Glu after VH), hexahistidine and tri-FLAG tags on the heavy chain) VH: QMQLVQSGAEVKKPGAPVKVSCKVSGYTFTDYYMHWVQQAPGKGLEWMGLVDPEDGETIYAEKFQGRVTITADTSTDTAYMELSSLRSEDTAVYYCATDATTPYWGMMWWGQGTLVTVSS VL: DIQMTQSPSSLSASVGDRVTITCQASQDISNYLNWYQQKPGRAPKVLIYDASNLETGVPSRFSGSGSGTEFTLTISNLRPDDFATYYCQQGDSFPLTFGGGTKVEIK
Response: 9.7 nM

Query: So what's the measured IC50, inhibition of HGF/SF-induced migration of SKOV-3 cells, Assay 1 for this one? 107_A01 Fab (His/tri-FLAG tagged, hinged) (Fab, V domains shown, Fab from pBIOCAM7-3F, hinged, hexahistidine and tri-FLAG tags on the heavy chain) VH: QMQLVQSGAEVKKPGAPVKVSCKVSGYTFTDYYMHWVQQAPGKGLEWMGLVDPEDGETIYAEKFQGRVTITADTSTDTAYMELSSLRSEDTAVYYCATDATTPYWGMVSWGQGTLVTVSS VL: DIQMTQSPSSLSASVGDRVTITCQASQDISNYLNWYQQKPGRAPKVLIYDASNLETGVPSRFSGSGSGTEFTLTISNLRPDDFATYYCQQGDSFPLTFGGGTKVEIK
Response: 9.7 nM
